Where do the numbers come from? From PubChem BioAssay (NCI).

# Test system: MDA-MB-468 breast
# Assay Summary: NCI tumour cell line growth inhibition, 48 h; in the data active = GI50 below about 0.43 µM; inactive = the rest
Classes used: YES (active), NO (inactive)

Molecule	Label Class
O=C(NCCNc1nccc(-c2c(-c3ccc(F)cc3)nc3sccn23)n1)c1ccccc1	NO
COc1ccc(-c2nc(N3CCOCC3)c3sc(CN(C)c4ncc(C(=O)NO)cn4)cc3n2)cn1	YES
Cc1cc(C)c2nc3nc(C)cc(C)c3c(N)c2c1	NO
N=c1n(Cc2ccccc2)c(N)cc(=O)n1Cc1ccccc1	NO
COc1cc(NC(=O)CSc2nc3ccccc3c(=O)n2CCc2ccccc2)cc(OC)c1OC	NO
CCN(CC)CCCCNc1ncc2cc(-c3cc(OC)cc(OC)c3)c(NC(=O)NC(C)(C)C)nc2n1	NO
COc1cccc(Cn2c(-c3nonc3NC(C)=O)nc3ccccc32)c1	NO
COc1ccc(-c2nn(-c3cccc(NC(=O)c4cccc(C(F)(F)F)c4)c3)cc2-c2ccncc2)cc1Cl	NO
CC(C)n1c(=O)n(C)c2cnc3cc(F)c(-c4ccc(OCCCN5CCCCC5)nc4)cc3c21	NO
O=C(Nc1ccc(OCc2nnc(-c3ccccc3)o2)c(F)c1)Nc1ccc(Cl)c(C(F)(F)F)c1	NO
O=C(c1ccc(Cl)cc1)C1[C@H](c2ccccc2Cl)[C@@H](c2ccccc2)NC12C(=O)Nc1ccccc12 (some centres undefined)	NO
CCOC(=O)c1c(Cl)c2c(n1Cc1cccc(OC)c1)-c1oncc1CC2	NO
COc1ccc(OC)c(/C=C2\COc3ccc(O)c(O)c3C2=O)c1	NO
O=S(=O)(CCNCc1ccc(-c2ccc3ncnc(Nc4ccc(OCc5cccc(F)c5)c(Cl)c4)c3c2)o1)c1ccccc1	YES
